System: E. coli (ATCC 25922)
PROCEDURE_TEXT: microbe, parasite or virus in culture
RECORDED_CONDITIONS: Escherichia coli, ATCC25922, read-out: MIC Compound alone, Table 1
MEASURED_PROPERTY: MIC

{"COMPOUND": "CCNC(=O)Nc1nc2cc(-c3cnc(NC(=O)N4CCCC4)nc3)cc(-c3cc(CN4CCOCC4)ccn3)c2s1 [Compound A-6]", "EXPERIMENTAL_RESULT": "> 64 mg/L"}
{"COMPOUND": "CCNC(=O)Nc1nc2cc(-c3cnc(CNS(C)(=O)=O)nc3)cc(-c3ccc(C)cn3)c2s1 [Compound A-19]", "EXPERIMENTAL_RESULT": "> 64 mg/L"}
{"COMPOUND": "CCNC(=O)Nc1nc2cc(-c3cc(C)n(C(C)c4ccc(C)nc4)c(=O)c3)cc(-c3ccccn3)c2s1 (stereo not drawn) [Compound A-4]", "EXPERIMENTAL_RESULT": "> 64 mg/L"}

----------
Tested on: E. coli (ATCC 25922)
PROCEDURE_TEXT: microbe, parasite or virus in culture
RECORDED_CONDITIONS: Escherichia coli, ATCC25922, read-out: MIC Compound alone, Table 12
Output 1.0 for records whose MIC is lower than 4 µg/mL, 0.0 for records at or above 4 µg/mL.

{"COMPOUND": "C[C@@H](O)[C@H]1C(=O)N2C(C(=O)O)=C(S[C@@H]3CN[C@H](C(=O)N(C)C)C3)[C@H](C)[C@H]12 [Meropenem, reference compound]", "CATEGORY": 1.0}
{"COMPOUND": "CC1(C)S[C@@H]2[C@H](NC(=O)C(C(=O)O)c3ccccc3)C(=O)N2[C@H]1C(=O)O (stereo partly drawn) [Carbenicillin, reference compound]", "CATEGORY": 0.0}
{"COMPOUND": "C[C@H]1COc2c(N3CCN(C)CC3)c(F)cc3c(=O)c(C(=O)O)cn1c23 [Levofloxacin, reference compound]", "CATEGORY": 1.0}
{"COMPOUND": "CC(C)(O/N=C(\\C(=O)N[C@@H]1C(=O)N2C(C(=O)[O-])=C(C[n+]3ccccc3)CS[C@H]12)c1csc(N)n1)C(=O)O [Ceftazidime, reference compound]", "CATEGORY": 1.0}
{"COMPOUND": "NC[C@H]1O[C@H](O[C@H]2[C@H](O)[C@@H](O[C@H]3O[C@H](CO)[C@@H](O)[C@H](N)[C@H]3O)[C@H](N)C[C@@H]2N)[C@H](O)[C@@H](O)[C@@H]1O [Kanamycin, reference compound]", "CATEGORY": 0.0}

----------
System: E. coli (ATCC 25922)
RECORDED_CONDITIONS: Table 12; (b) No significant effect
MEASURED_PROPERTY: MIC of Compound (μg/ml) in the presence of PMBN (32 μg/ml) (µg/mL)

{"COMPOUND": "CCNC(=O)Nc1nc2cc(-c3cnc([C@H](C)O)nc3)cc(-c3ccccn3)c2s1", "EXPERIMENTAL_RESULT": 0.12}
{"COMPOUND": "CC1(C)S[C@@H]2[C@H](NC(=O)[C@H](N)c3ccc(O)cc3)C(=O)N2[C@H]1C(=O)O [Amoxicillin, reference compound]", "EXPERIMENTAL_RESULT": 8}
